Overview of reported half-life at 10 μM across a group of compounds:
- experiment description: Hepatocyte stability assay, mouse
- Type: in vitro ADME
- protocol conditions: mouse, hepatocytes, Hepatocyte stability T½

| compound | quantity unit | relation operator | half-life at 10 μM |
| --- | --- | --- | --- |
| C=C(Cc1nc(Cc2ccc(CCCCC)cc2)no1)C(=O)O [Example 28] | min | < | 3 |
| C=C(Cc1nc(Cc2ccc(CCCC)cc2)no1)C(=O)O [Example 20] | min | = | 4 |
| C=C(Cc1nc(CCCCCCCC(F)(F)F)no1)C(=O)O [Example 11] | min | = | 18 |
| C=C(Cc1nc(CCCCCCCC)cs1)C(=O)O [Example 38] | min | = | 9 |
| C=C(Cc1nc(C2(c3ccc(I)cc3)CC2)no1)C(=O)O [Example 117] | min | = | 7 |
| CCCCCCCCc1noc(/C=C(\C)C(=O)O)n1 [Example 166] | min | = | 7 |
| C=C(Cc1nc(C2(c3ccc(SC(F)(F)F)cc3)CC2)no1)C(=O)O [Example 86] | min | = | 103 |
| C=C(Cc1nc(CCCCCCC(F)(F)C(F)(F)F)no1)C(=O)O [Example 17] | min | = | 12 |
| C=C(Cc1nc(C(C)(C)CCCCC)no1)C(=O)O [Example 12] | min | = | 90 |
| C=C(Cc1nc(-c2ccc(C(F)(F)CCCC)cc2)no1)C(=O)O [Example 79] | min | < | 3 |
| C=C(Cc1nnc(CCCCCCCC)o1)C(=O)O [Example 2] | min | = | 19 |
| C=C(Cc1nc(CCc2ccc(CCC)cc2)no1)C(=O)O [Example 36] | min | = | 7 |
| C=C(C(=O)O)C(O)c1nc(CCCCCCCC)no1 (centres unmarked) [Example 108] | min | = | 4 |
| C=C(Cc1nc(Cc2ccc(C(F)(F)F)cc2)no1)C(=O)O [Example 42] | min | = | 118 |
| C=C(Cc1nc(C2(c3cccc(Cl)c3)CC2)no1)C(=O)O [Example 21] | min | = | 28 |
| C=C(Cc1ccc(CCCCCCCC)cn1)C(=O)O [Example 105] | min | < | 3 |
| C=C(Cc1nc(C2(c3ccc(C4CCC4)cc3)CC2)no1)C(=O)O [Example 131] | min | = | 11 |
| C=C(Cc1nc(Cc2ccc(Cl)cc2)no1)C(=O)O [Example 4] | min | = | 93 |
| C=C(Cc1nc(Cc2cc(Cl)c(F)c(Cl)c2)no1)C(=O)O [Example 134] | min | = | 75 |
| C=C(Cc1nc(Cc2cc(Cl)cc(Cl)c2)no1)C(=O)O [Example 16] | min | = | 45 |
| C=C(Cc1nc(C2(c3cc(Cl)c(F)c(Cl)c3)CC2)no1)C(=O)O [Example 133] | min | = | 4 |
| C=C(Cc1nc(C2(c3ccc(Br)c(Cl)c3)CC2)no1)C(=O)O [Example 138] | min | < | 3 |
| C=C(Cc1nc(-c2ccc(CCCCC(F)(F)F)cc2)no1)C(=O)O [Example 75] | min | = | 4 |
| C=C(Cc1nc(C(F)(F)c2ccc(Br)c(Cl)c2)no1)C(=O)O [Example 154] | min | = | 7 |
| C=C(Cc1nc(C(F)(F)c2ccc(CCCC)cc2)no1)C(=O)O [Example 91] | min | = | 6 |
| C=C(Cc1nc(C2(c3ccc(OC4CCC4)cc3)CC2)no1)C(=O)O [Example 111] | min | = | 3 |
| C=C(Cc1ccc(CCCCCCCC)nn1)C(=O)O [Example 116] | min | = | 5 |
| C=C(Cc1noc(CCCCCCCC)n1)C(=O)O [Example 3] | min | = | 12 |
| C=C(Cc1nc(Cc2ccc(C3CCC3)cc2)no1)C(=O)O [Example 128] | min | = | 6 |
| C=C(Cc1nc(-c2ccc(OCCCC)cc2)no1)C(=O)O [Example 61] | min | = | 4 |
| C=C(Cc1nc(C2(c3ccc(Cl)cc3)CC2)no1)C(=O)O [Example 10] | min | = | 8 |
| CCCCOc1ccc(-c2noc(/C=C(\C)C(=O)O)n2)cc1 [Example 167] | min | = | 6 |
| C=C(Cc1nc(Cc2ccc(OC(F)(F)F)cc2)no1)C(=O)O [Example 46] | min | = | 76 |
| C=C(Cc1noc(C(F)(F)CCCCCCC)n1)C(=O)O [Example 83] | min | < | 3 |
| C=C(Cc1nc(-c2ccc(OCCCC)c(F)c2)no1)C(=O)O [Example 129] | min | < | 3 |
| C=C(Cc1nc(C2(c3ccc(Cl)c(F)c3)CC2)no1)C(=O)O [Example 52] | min | = | 10 |
| C=C(Cc1nc(Cc2ccc(C(F)(F)CCCC)cc2)no1)C(=O)O [Example 93] | min | < | 3 |
| [2H]C([2H])([2H])C([2H])([2H])C([2H])([2H])C([2H])([2H])C([2H])([2H])C([2H])([2H])C([2H])([2H])C([2H])([2H])c1noc(CC(=C)C(=O)O)n1 [Example 34] | min | = | 4 |

Values from patent US12617762B2
